# Tested on: APPswe/PS1ΔE9 mice
# assay name: Morris water maze, APPswe/PS1ΔE9 mice, Animal Model Experiment 1
# experimental setup: oral administration from 4 months of age; versus control transgenic mice

compound: COCCc1ccc(OCC(O)CNC(C)C)cc1 (stereo not drawn)
escape latency, hidden platform training: showed no effect
--
compound: CC(C)(C)NCC(O)COc1cccc2c1CC(O)C(O)C2 (stereo not drawn)
escape latency, hidden platform training: showed no effect
